- assay.target: ATM kinase (Homo sapiens, UniProt Q13315)
- Construct: The full-length cDNA encoding NH2-terminal, FLAG-tagged wild-type ATM; made in house; host or cells: 293T cells, transient transfection with pcDNA-FLAG-ATMwt, anti-FLAG M2 immunoprecipitate on beads
- Sequence (Q13315 whole entry, the tested form may be a part): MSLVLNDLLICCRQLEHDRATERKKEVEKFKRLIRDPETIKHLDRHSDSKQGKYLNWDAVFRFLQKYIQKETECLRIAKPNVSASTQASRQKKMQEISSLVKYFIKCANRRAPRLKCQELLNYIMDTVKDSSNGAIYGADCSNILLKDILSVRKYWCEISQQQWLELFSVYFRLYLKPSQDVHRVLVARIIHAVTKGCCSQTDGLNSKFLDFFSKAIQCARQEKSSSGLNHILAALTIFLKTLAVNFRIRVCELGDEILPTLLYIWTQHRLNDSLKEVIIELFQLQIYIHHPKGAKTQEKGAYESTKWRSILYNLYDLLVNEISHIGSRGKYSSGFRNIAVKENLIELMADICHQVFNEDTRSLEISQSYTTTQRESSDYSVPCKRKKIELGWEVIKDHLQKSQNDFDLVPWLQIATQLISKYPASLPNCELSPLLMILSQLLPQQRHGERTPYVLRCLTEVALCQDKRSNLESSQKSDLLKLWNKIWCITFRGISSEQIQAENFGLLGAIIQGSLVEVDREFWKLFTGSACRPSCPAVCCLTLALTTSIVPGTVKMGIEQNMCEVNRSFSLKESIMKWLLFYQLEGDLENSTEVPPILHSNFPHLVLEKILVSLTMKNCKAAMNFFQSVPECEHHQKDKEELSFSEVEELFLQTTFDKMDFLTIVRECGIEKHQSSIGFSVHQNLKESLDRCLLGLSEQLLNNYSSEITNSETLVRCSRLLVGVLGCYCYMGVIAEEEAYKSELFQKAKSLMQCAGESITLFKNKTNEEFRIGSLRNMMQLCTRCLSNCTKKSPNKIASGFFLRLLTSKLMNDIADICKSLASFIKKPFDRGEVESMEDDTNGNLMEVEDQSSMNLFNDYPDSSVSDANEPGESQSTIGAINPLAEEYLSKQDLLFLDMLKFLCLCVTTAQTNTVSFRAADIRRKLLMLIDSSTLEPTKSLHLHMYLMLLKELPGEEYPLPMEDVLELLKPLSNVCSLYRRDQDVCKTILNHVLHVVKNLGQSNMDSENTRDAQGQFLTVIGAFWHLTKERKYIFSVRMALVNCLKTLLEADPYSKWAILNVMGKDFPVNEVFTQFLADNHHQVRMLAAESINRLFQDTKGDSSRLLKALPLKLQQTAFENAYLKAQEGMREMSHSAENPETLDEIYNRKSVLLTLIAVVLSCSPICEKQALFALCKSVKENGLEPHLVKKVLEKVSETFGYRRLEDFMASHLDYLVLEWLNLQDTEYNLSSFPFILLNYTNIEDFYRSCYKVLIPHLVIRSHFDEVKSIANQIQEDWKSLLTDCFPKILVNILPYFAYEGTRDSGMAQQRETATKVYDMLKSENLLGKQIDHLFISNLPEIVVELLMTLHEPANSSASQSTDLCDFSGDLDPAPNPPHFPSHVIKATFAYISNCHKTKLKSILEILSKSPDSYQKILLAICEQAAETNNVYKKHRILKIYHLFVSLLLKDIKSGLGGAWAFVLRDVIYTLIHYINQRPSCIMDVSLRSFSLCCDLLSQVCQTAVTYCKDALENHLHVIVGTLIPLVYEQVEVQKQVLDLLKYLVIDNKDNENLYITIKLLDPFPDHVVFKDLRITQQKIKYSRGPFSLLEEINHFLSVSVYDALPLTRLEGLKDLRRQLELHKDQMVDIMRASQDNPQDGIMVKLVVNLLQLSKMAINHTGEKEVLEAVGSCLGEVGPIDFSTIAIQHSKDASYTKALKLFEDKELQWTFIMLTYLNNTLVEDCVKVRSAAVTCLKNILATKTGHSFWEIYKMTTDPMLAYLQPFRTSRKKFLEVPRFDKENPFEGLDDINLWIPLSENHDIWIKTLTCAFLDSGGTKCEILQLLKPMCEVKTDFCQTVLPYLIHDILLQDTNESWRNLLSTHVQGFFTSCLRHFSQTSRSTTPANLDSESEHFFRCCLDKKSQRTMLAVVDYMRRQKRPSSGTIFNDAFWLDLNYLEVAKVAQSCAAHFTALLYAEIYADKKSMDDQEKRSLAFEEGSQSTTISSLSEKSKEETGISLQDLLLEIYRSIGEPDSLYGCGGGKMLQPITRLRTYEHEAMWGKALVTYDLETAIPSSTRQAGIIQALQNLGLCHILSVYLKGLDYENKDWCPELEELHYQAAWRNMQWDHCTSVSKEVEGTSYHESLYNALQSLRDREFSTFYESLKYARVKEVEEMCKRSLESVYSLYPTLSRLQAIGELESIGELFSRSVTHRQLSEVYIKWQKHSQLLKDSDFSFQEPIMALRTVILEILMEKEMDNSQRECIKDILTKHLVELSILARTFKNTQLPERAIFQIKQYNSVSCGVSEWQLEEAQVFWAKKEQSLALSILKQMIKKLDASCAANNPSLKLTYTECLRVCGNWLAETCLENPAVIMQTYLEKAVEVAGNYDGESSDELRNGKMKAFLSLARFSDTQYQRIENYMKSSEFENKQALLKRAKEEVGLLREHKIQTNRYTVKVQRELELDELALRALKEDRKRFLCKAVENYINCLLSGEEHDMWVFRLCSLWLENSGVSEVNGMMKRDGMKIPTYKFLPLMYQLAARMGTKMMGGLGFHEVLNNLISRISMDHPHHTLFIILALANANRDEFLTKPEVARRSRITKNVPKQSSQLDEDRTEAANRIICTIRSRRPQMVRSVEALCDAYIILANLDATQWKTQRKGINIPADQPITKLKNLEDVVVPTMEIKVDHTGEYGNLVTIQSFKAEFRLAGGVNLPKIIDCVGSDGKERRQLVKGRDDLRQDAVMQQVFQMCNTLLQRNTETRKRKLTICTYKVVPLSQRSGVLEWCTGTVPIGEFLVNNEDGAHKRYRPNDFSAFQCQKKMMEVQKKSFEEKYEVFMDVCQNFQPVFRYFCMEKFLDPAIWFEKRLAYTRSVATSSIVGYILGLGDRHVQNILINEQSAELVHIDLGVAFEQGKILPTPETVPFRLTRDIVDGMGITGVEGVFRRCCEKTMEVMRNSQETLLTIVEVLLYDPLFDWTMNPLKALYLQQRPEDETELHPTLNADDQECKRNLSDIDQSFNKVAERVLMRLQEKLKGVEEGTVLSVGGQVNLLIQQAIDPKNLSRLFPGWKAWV
- assay.name: In vitro kinase assay, ATM with GST-peptide / GST-fusion substrates
- Assay type: biochemical
- stated.conditions: GST-peptide substrate; relative to the p53ser15 site
Where no end group is shown, it is not given here.
Quick list: Relative Phosphorylation (%) ATM per entry.
Give the value in % but do not write % after it.

Use the examples below as a reference point.
1) WRN (SQ2): GST-peptide TIGMHLSQAVKAGC (SEQ ID NO:20), S1292 (not fully specified (N-terminus); also: GST fusion; listed as Homo sapiens)    10
2) CHK1 (SQ2): GST-peptide VQGISFSQPTCPDH (SEQ ID NO:17), S345 (also: GST fusion)    11

Here is the next item to consider.
query: Field: Relative Phosphorylation (%) ATM (ATM kinase (Homo sapiens, UniProt Q13315)). Entry: DNA 5B: GST-peptide QPEPPVSQSEISEP (SEQ ID NO:38), S72 (also: GST fusion)
result: 3

###

- assay.target: DNA-PK (Homo sapiens, UniProt P78527)
- assay.name: In vitro kinase assay, purified DNA-PK with GST-peptide / GST-fusion substrates
- Assay type: biochemical
- stated.conditions: GST-peptide substrate; relative to the p53ser15 site
Where no end group is shown, it is not given here.
// values below are reported Relative Phosphorylation (%) DNA-PK
Hi! Could you send only the number? It should be in %, unit omitted.

Solved cases (3 shown):
1) p53 S37: GST-peptide VLSPLPSQAMDDLM (SEQ ID NO:8), p53 serine 37 site (not fully specified (N-terminus); also: GST fusion; listed as Homo sapiens)    132
2) β-ADAPTIN: GST-peptide CRAPEVSQHVYQAY (SEQ ID NO:28), S935 (not fully specified (N-terminus); also: GST fusion; listed as Homo sapiens)    2
3) 4EBP1 (Phas I): GST-peptide EPPMEASQSHLRNS (SEQ ID NO:9), S94 (also: GST fusion)    10

query: What value of measured Relative Phosphorylation (%) DNA-PK is listed for CUT1: GST-peptide GASPVLSQGVDPRS (SEQ ID NO:36), S1615 (also: GST fusion) ?
result: 5

###

- assay.target: ATM kinase (Homo sapiens)
- Construct: The full-length cDNA encoding NH2-terminal, FLAG-tagged wild-type ATM; made in house; host or cells: 293T cells, transient transfection with pcDNA-FLAG-ATMwt, anti-FLAG M2 immunoprecipitate on beads
- assay.name: In vitro kinase assay, ATM with GST-peptide / GST-fusion substrates;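 further: immunoprecipitated ATM incubated with [γ-32P]ATP at 30 °C for 20 min, substrates resolved by SDS-PAGE and radiolabel incorporation quantified by PhosphorImager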
- Assay type: biochemical
- stated.conditions: GST-peptide substrate; relative to the p53ser15 site
Where no end group is shown, it is not given here.
Listing: Relative Phosphorylation (%) ATM of selected substances
Could you give me the number in %? Just the number is fine.

Below: 3 substances and their reported Relative Phosphorylation (%) ATM.
1. ATM S440: GST-peptide PLLMILSQLLPQQR (SEQ ID NO:24), S440 of ATM (also: GST fusion)    33
2. p95: GST-peptide TPGPSLSQGVSVDE (SEQ ID NO:10), S343 (not fully specified (N-terminus); also: GST fusion; listed as Homo sapiens)    19
3. CHK1 (SQ1): GST-peptide NVKYSSSQPEPRTG (SEQ ID NO:16), S317 (also: GST fusion)    14

query: Relative Phosphorylation (%) ATM lookup needed for RAD17 (SQ1): GST-peptide TWSLPLSQDSASEL (SEQ ID NO:18), S646 (not fully specified (N-terminus); also: GST fusion) , thanks.
result: 81

query: Another substance: BRCA1 (SQ3): GST-peptide SSEYPISQNPEGLS (SEQ ID NO:34), S1466 (also: GST fusion)
result: 8

query: Okay, and β3A Adaptin: GST-peptide ELKPVLSQG (SEQ ID NO:43), S1092 (not fully specified (N-terminus); also: GST fusion; listed as Homo sapiens) ?
result: 6

query: Queued: WRN (SQ1): GST-peptide EKAYSSSQPVISAQ (SEQ ID NO:21), S1141 (not fully specified (N-terminus); also: GST fusion; listed as Homo sapiens)
result: 25

query: Repeat with DNA LIG-IV: GST-peptide DLKLGVSQQTIFSV (SEQ ID NO:39), S132 (also: GST fusion)
result: 5

query: Another: 4EBP1 (Phas I): GST-peptide EPPMEASQSHLRNS (SEQ ID NO:9), S94 (also: GST fusion)
result: 78
